Biological target: HPK1 (Homo sapiens, UniProt Q92918)
Sequence (Q92918 whole entry): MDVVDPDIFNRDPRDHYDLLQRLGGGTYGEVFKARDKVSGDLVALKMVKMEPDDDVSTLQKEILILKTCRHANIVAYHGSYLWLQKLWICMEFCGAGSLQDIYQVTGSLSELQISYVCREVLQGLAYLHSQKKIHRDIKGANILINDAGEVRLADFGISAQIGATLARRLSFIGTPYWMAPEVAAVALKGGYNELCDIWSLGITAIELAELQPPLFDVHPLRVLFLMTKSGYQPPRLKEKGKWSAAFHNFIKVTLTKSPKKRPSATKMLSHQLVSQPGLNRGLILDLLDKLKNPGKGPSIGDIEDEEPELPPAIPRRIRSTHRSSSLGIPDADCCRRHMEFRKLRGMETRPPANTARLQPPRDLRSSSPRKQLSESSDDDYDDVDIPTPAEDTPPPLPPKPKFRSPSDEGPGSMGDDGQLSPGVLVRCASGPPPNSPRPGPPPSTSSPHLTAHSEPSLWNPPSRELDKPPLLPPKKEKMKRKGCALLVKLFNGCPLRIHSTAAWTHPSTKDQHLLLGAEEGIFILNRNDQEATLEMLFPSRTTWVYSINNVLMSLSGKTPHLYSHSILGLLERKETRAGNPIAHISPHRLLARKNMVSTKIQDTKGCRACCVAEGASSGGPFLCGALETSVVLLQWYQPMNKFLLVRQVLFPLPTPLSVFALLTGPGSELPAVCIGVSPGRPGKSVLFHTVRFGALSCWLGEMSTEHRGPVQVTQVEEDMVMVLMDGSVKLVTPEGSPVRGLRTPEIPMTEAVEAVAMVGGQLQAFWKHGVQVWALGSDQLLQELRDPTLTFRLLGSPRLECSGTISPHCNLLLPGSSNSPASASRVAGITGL
Assay: SLP76 phosphorylation assay (intracellular HPK1 inhibitory activity, p-SLP76 S376 ELISA in Jurkat cells)
Details: p-SLP76 IC50, Jurkat, Clone E6-1 cells; 1 h compound pre-incubation; anti-CD3 beads stimulation 20 min; Phospho-SLP-76 (Ser376) ELISA
pIC50: −log10 of the molar value. Where a name gives a salt, the structure may show the parent alone.
readout: pIC50

Cc1c[nH]c2ncc(-c3cc4c(c([C@@H]5COCCN5)c3)CN(C(=O)C3(C)CCOCC3)CC4)cc12 : 6.68
C#Cc1c[nH]c2ncc(-c3cc4c(c([C@@H]5COCCN5)c3)CN(C(=O)C(C)(C)O)CC4)cc12 : 6.08
Cc1c[nH]c2ncc(-c3cc4c(c([C@@H]5COCCN5)c3)CN(C(=O)N3CCOC(C)(C)C3)CC4)cc12 : 6.83
Cc1c[nH]c2ncc(-c3cc4c(c(C5COCCN5)c3)CN(C(=O)[C@](C)(O)C(F)(F)F)CC4)cc12 (single isomer, unassigned) : 7.08
O=C(N1CCc2cc(-c3cnc4[nH]cc(Cl)c4c3)cc([C@@H]3COCCN3)c2C1)N1C[C@H]2C[C@@H]1CO2 : 7.17
C[C@H]1COCCN1C(=O)N1CCc2cc(-c3cnc4[nH]cc(Cl)c4c3)cc([C@@H]3COCCN3)c2C1 : 6.87
CS(=O)(=O)N1CCc2cc(-c3cnc4[nH]cc(Cl)c4c3)cc([C@@H]3COCCN3)c2C1 : 6.55
Cc1cccnc1C#Cc1c[nH]c2ncc(-c3cc4c(c([C@@H]5COCCN5)c3)CN(C(=O)C(C)(C)O)CC4)cc12 : 6.79
Cc1c[nH]c2ncc(-c3cc4c(c([C@@H]5COCCN5)c3)CN(C(=O)N3C[C@H](C)O[C@@H](C)C3)CC4)cc12 : 6.83
O=S(=O)(C1CC1)N1CCc2cc(-c3cnc4[nH]cc(Cl)c4c3)cc([C@@H]3COCCN3)c2C1 : 6.66

I = CC(=O)c1c[nH]c2ncc(-c3cc4c(c([C@@H]5COCCN5)c3)CN(C(=O)C(C)(C)O)CC4)cc12
II = COc1c[nH]c2ncc(-c3cc4c(c([C@@H]5COCCN5)c3)CN(C(=O)N3C5CCC3COC5)CC4)cc12
q: Kindly identify which of I and II has the larger recorded pIC50 value. Give the label of your selection.
a: II
(II: 6.80, I: 6.50)

I = CCNC(=O)N1CCc2cc(-c3cnc4[nH]cc(C)c4c3)cc([C@@H]3COCCN3)c2C1 [Compound Z376, formate]
II = Cc1c(Cl)[nH]c2ncc(-c3cc4c(c([C@@H]5COCCN5)c3)CN(C(=O)C(C)(C)O)CC4)cc12
III = O=C(N1CCc2cc(-c3cnc4[nH]cc(Cl)c4n3)cc([C@@H]3COCCN3)c2C1)N1C2CCC1COC2
IV = CCc1c[nH]c2ncc(-c3cc4c(c([C@@H]5COCCN5)c3)CN(C(=O)N3CCOCC3)CC4)nc12
q: Sort the compounds on pIC50; start with the lowest figure. The reply should contain the labels ordered as requested.
a: II, I, III, IV
(II: 6.35, I: 6.68, III: 6.97, IV: 7.37)

P = CC(C)(O)C(=O)N1CCc2cc(-c3cnc4[nH]cc(F)c4c3)cc([C@@H]3COCCN3)c2C1
Q = C[C@H]1COCCN1C(=O)N1CCc2cc(-c3cnc4[nH]cc(Cl)c4n3)cc([C@@H]3COCCN3)c2C1
q: Which entry has a larger number for pIC50, P or Q ? Reply briefly: the label of your chosen item.
a: Q
(Q: 6.91, P: 6.60)

a = Cc1c[nH]c2ncc(-c3cc4c(c([C@@H]5COCCN5)c3)CN(C(=O)N3CC[C@@H](F)C3)CC4)cc12
b = Cc1c[nH]c2ncc(-c3cc4c(c([C@@H]5COCCN5)c3)CN(C(=O)c3cnn(C(C)C)c3)CC4)cc12
q: Between the entries labeled a and b , whose measured pIC50 is lower? When you have decided, please share the label of that item.
a: b
(b: 6.37, a: 6.81)

====

Biological target: HPK1 (Homo sapiens)
Test: SLP76 phosphorylation assay (intracellular HPK1 inhibitory activity, p-SLP76 S376 ELISA in Jurkat cells)
Settings: p-SLP76 IC50, Jurkat, Clone E6-1 cells; 1 h compound pre-incubation; anti-CD3 beads stimulation 20 min; Phospho-SLP-76 (Ser376) ELISA
pIC50: −log10 of the molar value.
readout: pIC50

Cc1c[nH]c2ncc(-c3cc4c(c([C@@H]5COCCN5)c3)CN(C(=O)N3C[C@@H]5C[C@H]3CO5)CC4)cc12 : 6.53
Cc1ncc(C(=O)N2CCc3cc(-c4cnc5[nH]cc(C)c5c4)cc([C@@H]4COCCN4)c3C2)cn1 : 6.47

1 = Cc1c(F)[nH]c2ncc(-c3cc4c(c([C@@H]5COCCN5)c3)CN(C(=O)C(C)(C)O)CC4)cc12
2 = Cc1c[nH]c2ncc(-c3cc4c(c([C@@H]5COCCN5)c3)CN(C(=O)N3CCOC[C@H]3C)CC4)cc12
q: Between the two listed entries 1 and 2 , which has its pIC50 at the higher number? Field: selected label. Fill in the label of the entry you choose.
a: 2

====

Biological target: HPK1 (Homo sapiens, UniProt Q92918)
Assay: SLP76 phosphorylation assay (intracellular HPK1 inhibitory activity, p-SLP76 S376 ELISA in Jurkat cells)
Conditions: p-SLP76 IC50, Jurkat, Clone E6-1 cells; 1 h compound pre-incubation; anti-CD3 beads stimulation 20 min; Phospho-SLP-76 (Ser376) ELISA
readout: IC50 (nM)

Cc1c[nH]c2ncc(-c3cc4c(c([C@@H]5COCCN5)c3)CN(C(=O)N3CC[C@H](F)C3)CC4)cc12 : 150

A = Cc1c[nH]c2ncc(-c3cc4c(c([C@@H]5COCCN5)c3)CN(C(=O)N3CCO[C@H](C)C3)CC4)cc12
B = O=C(N1CCc2cc(-c3cnc4[nH]cc(Cl)c4n3)cc([C@@H]3COCCN3)c2C1)N1CC2CCC(C1)O2
q: // which entry has the larger IC50 value, A or B ? Indicate your choice by writing its label.
a: A
(A: 364 nM, B: 66.3 nM)

====

Target: HPK1 (Homo sapiens, UniProt Q92918)
Assay: SLP76 phosphorylation assay (intracellular HPK1 inhibitory activity, p-SLP76 S376 ELISA in Jurkat cells)
Conditions: p-SLP76 IC50, Jurkat, Clone E6-1 cells; 1 h compound pre-incubation; anti-CD3 beads stimulation 20 min; Phospho-SLP-76 (Ser376) ELISA
pIC50: −log10 of the molar value.
readout: pIC50

O=C(N1CCc2cc(-c3cnc4[nH]cc(Cl)c4c3)cc([C@@H]3COCCN3)c2C1)C1(O)CC1 : 6.59

P = O=C(N1CCOCC1)N1CCc2cc(-c3cnc4[nH]cc(Cl)c4c3)cc([C@@H]3COCCN3)c2C1
Q = O=C(N1CCC(O)CC1)N1CCc2cc(-c3cnc4[nH]cc(Cl)c4c3)cc([C@@H]3COCCN3)c2C1
R = O=C(C1CCOCC1)N1CCc2cc(-c3cnc4[nH]cc(Cl)c4c3)cc([C@@H]3COCCN3)c2C1
q: # ascending order, key=pIC50 In your reply, arrange the labels in the requested order.
a: Q, R, P

====

Molecular target: UniProt Q92918
Assay: SLP76 phosphorylation assay (intracellular HPK1 inhibitory activity, p-SLP76 S376 ELISA in Jurkat cells)
Conditions: p-SLP76 IC50, Jurkat, Clone E6-1 cells; 1 h compound pre-incubation; anti-CD3 beads stimulation 20 min; Phospho-SLP-76 (Ser376) ELISA
pIC50: −log10 of the molar value.
readout: pIC50

# count of solved cases: 2
O=C(N1CCc2cc(-c3cnc4[nH]cc(Cl)c4c3)cc([C@@H]3COCCN3)c2C1)N1C2CCC1COC2 : 7.09
CC(C)(O)C(=O)N1CCc2cc(-c3cnc4[nH]cc(C(F)(F)F)c4c3)cc([C@@H]3COCCN3)c2C1 : 6.84

a = Cc1c[nH]c2ncc(-c3cc4c(c([C@@H]5COCCN5)c3)CN(C(=O)C3(O)CCOCC3)CC4)cc12
b = O=C(N1CCc2cc(-c3cnc4[nH]cc(Cl)c4n3)cc([C@@H]3COCCN3)c2C1)N1C[C@@H]2CC[C@H]1CO2 (single isomer, unassigned)
c = Cc1c[nH]c2ncc(-c3cc4c(c([C@@H]5CCCN5)c3)CN(C(=O)N3CCOC(C(F)(F)F)C3)CC4)cc12 (single isomer, unassigned) [Compound Z491]
q: Put the items in sequence by pIC50, from largest down. State the ranking by listing the labels in the requested order.
a: b, a, c
